# experimental target: Delta-type opioid receptor (Homo sapiens, UniProt P41143)
# Sequence (P41143 whole entry): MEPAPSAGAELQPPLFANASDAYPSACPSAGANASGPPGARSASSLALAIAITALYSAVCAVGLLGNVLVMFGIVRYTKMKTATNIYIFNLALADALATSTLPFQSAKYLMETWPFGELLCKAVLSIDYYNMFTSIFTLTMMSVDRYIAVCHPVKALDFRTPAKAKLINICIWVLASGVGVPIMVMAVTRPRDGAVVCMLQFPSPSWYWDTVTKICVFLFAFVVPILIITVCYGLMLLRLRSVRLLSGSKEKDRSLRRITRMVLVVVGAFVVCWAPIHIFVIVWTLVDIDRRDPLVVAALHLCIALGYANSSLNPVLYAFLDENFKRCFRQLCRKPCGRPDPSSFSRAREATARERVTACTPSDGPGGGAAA
# experimental details: Agonist activity at delta opioid receptor (unknown origin) expressed in CHO cells assessed as change in cell morphology at 3.3 uM measured over 30 mins by label free binding assay relative to DPDPE
# Format: cell-based
Each entry below carries its recorded Activity.
Express your answer in %, writing the number without its unit.

Cc1cc(O)cc(C)c1C[C@H](N)C(=O)N1CCc2ccccc2C1C(=O)N[C@@H](Cc1ccccc1)C(=O)N[C@@H](Cc1ccccc1)[C@@H](O)C(N)=O (stereo partly drawn): 22
Cc1cc(O)cc(C)c1C[C@H](N)C(=O)N1CCc2ccccc2C1C(=O)N[C@@H](Cc1ccccc1)[C@@H](O)C(=O)N[C@@H](Cc1ccccc1)C(N)=O (stereo partly drawn): 30

Could you now look at the following compound, please?
Output reported Activity of the compound Cc1cc(O)cc(C)c1C[C@H](N)C(=O)N1CCc2ccccc2C1C(=O)N[C@@H](Cc1ccccc1)C(=O)N[C@@H](Cc1ccccc1)[C@H](O)C(N)=O (stereo partly drawn) on Delta-type opioid receptor (Homo sapiens, UniProt P41143).
82

Values were extracted from ChEMBL document CHEMBL3407426.
